Test system: UACC-62 melanoma
procedure.text: NCI tumour cell line growth inhibition, 48 h

compound	TGI
CC/C(CC(=O)CCC(=O)Nc1ccc(C)c(C)c1)=N\NC(=O)c1cc2ccccc2cc1O	43.9 µM
Cc1[nH]c2c(C)c3c([nH]c4ccc(Cl)cc43)c(C)c2c(=O)c1C	> 88.3 µM
C=CCSC1=N/C(=C\c2ccc(C)cc2)C(=O)N1CC=C	> 100 µM
COC(=O)[C@@H]1CN(C(=O)Cc2ccccc2)C(=O)N1	> 100 µM
CCn1c(=O)nc2n(-c3ccc(SC)cc3)c3ccccc3nc-2c1=O	> 100 µM
CCOc1c2c(cc3c1C(=O)c1c(OC)cccc1C3=O)C=C(OC)CC2	> 25 µM
CCOC(=O)C(=O)CC(=O)C(Br)C(Br)c1ccc(Cl)cc1 (stereo unspecified)	> 100 µM
COc1ccc2cc(CNCCCCCCNC(=O)Nc3cccc4ccccc34)ccc2c1	> 100 µM
CC1OC(O[C@@H]2C=C3CC[C@@H]4[C@H](CC[C@]5(C)[C@@H](c6ccc(=O)oc6)CC[C@]45O)[C@@]3(C)CC2)C(O)C(O)C1O (stereo partly specified)	0.003 µM
Clc1ccc(Cc2nc3cc4ccccc4cc3[nH]2)cc1Cl	34.2 µM
O=C1OCc2nc3c(c(-c4ccccc4C(F)(F)F)c21)C(=O)OC3	> 100 µM
O=C1OCOC2(CCCC2)C1c1ccccc1 (stereo unspecified)	> 100 µM
CCCCCCNC(=O)CCN(C(=O)O)S(=O)(=O)c1ccc(NC(=O)c2ccccc2)cc1	> 77.7 µM
O=C1N[C@@H]([C@H]2CC[C@H](Cl)CN2)C(=O)N[C@H]1[C@H]1CC[C@H](Cl)CN1	3.53 µM
CN1CCN(Cc2ccc(NC(=O)c3cncc(C#Cc4c(N)ncc5ccccc45)c3)cc2C(F)(F)F)CC1	1.55 µM
COc1ccc2c(Cl)cc(NC(=S)Nc3ccccc3)nc2c1	46.4 µM
CC(=O)OC1COC(N2C(=O)C(=O)c3ccccc32)C(OC(C)=O)C1OC(C)=O (stereo unspecified)	> 100 µM
O=C(O)c1ccccc1Sc1ccc(C=C2NC(=S)N(c3ccccc3)C2=O)s1	> 100 µM
CN(C(=O)C12C3C4C1C1C2C3C41C#N)C(C)(C)C (stereo unspecified)	> 100 µM
COc1cc(F)c(F)c(Nc2ccc(I)cc2F)c1NS(=O)(=O)C1(CC(O)CO)CC1 (stereo unspecified)	9.81 µM
COC(=O)CC(=O)OC1C[C@@H]2CCC3C(C)(C)CCC[C@]3(C)C23CC[C@@]1(C)C3 (stereo partly specified)	30.7 µM
